Consider the following molecules; for each one, report its IC50.
- tested_system: human P2X4 (Homo sapiens)
- Sequence (Q99571 1-388): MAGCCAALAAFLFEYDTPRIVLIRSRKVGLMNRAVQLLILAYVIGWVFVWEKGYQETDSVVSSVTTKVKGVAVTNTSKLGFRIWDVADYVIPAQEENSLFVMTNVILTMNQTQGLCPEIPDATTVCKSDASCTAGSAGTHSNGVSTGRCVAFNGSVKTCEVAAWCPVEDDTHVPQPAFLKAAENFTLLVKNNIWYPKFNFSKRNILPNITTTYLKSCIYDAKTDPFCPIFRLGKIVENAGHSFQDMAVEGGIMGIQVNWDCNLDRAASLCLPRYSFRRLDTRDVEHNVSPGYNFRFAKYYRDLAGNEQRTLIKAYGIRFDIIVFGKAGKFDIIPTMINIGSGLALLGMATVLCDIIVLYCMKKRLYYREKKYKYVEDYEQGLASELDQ
- measurement_description: Human P2X4 HEK Cell FLIPR Assay
- details: HEK293 cells, agonist Bz-ATP at EC80; individual values listed where some fall outside detection range
One number for each entry, in µM.

molecule: NS(=O)(=O)c1cc(NC(=O)Cc2ccccc2OC(F)(F)F)ccc1-n1cc(Cl)cn1
units_label: µM
observed_measurement: 0.143
--
molecule: CC(C)(C)C(O)Cn1cc(-c2ccc(NC(=O)Cc3ccccc3Cl)cc2S(N)(=O)=O)cn1 (stereo not drawn)
units_label: µM
observed_measurement: 0.097

Let's switch to this molecule now.
**Q:** Need IC50, item `NS(=O)(=O)c1cc(NC(=O)Cc2c(F)cccc2Cl)ccc1-c1ccc(Cl)nc1`
**A:** 0.137
